# assayed-system: human CSNK1D (Homo sapiens, UniProt P48730)
# Sequence (P48730 whole entry): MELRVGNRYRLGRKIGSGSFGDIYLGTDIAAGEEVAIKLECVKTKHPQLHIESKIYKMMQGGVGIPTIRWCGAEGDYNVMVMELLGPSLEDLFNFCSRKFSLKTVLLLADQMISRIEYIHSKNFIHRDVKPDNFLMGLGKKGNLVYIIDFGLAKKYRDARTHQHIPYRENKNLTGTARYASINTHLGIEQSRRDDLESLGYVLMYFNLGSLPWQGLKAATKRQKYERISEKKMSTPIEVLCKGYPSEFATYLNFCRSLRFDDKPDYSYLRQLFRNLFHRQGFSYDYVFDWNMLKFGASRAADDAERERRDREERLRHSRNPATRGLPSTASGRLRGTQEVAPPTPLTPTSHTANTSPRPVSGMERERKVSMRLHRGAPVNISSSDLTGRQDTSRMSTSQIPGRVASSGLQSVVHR
# assay-explanation: Whole Cell nBRET CSNK1D Binding Assay
# test-settings: living CHO cells stably expressing human CSNK1D tagged with nanoluciferase; NanoBret tracer 130 nM; 2 hours at 37 C
measure: IC50 (nM)

The cases that follow already have their IC50 on record.
molecule	measure	value-measured
Fc1ccc(-c2nn3c(c2-c2ccnc4[nH]ncc24)OCCCC3)cc1 [Example 216]	IC50	38
Cc1cc(-c2c(-c3ccc(F)cc3)nn3c2COCC3(C)C)c2cn[nH]c2n1 [Example 121]	IC50	233
Fc1ccc(-c2nn3c(c2-c2c(F)cnc4[nH]ncc24)CCC(F)(F)C3)cc1 [Example 280]	IC50	19
Fc1ccc(-c2nn3c(c2-c2ccnc4[nH]ncc24)C2CCC3CC2)nc1 [Example 65]	IC50	55
Fc1ccc(-c2nn3c(c2-c2ccnc4[nH]ncc24)CCC3)cc1 [Example 4]	IC50	22
CC1(CF)CCc2c(-c3cc(F)ncc3F)c(-c3ccc(F)cn3)nn2C1 (racemic) [Example 288]	IC50	4100

P. COc1cccc(-c2nn3c(c2-c2ccnc4[nH]ncc24)COC(C)(C)C3)n1 [Example 161]
Q. Fc1ccc(-c2nn3c(c2-c2c(F)cnc4[nH]ncc24)CCC2(C3)CC2(F)F)nc1 (single isomer, unassigned) [Example 330]
R. Fc1ccc(-c2nn3c(c2-c2ccnc4[nH]ncc24)C2CC2C3)cc1 (racemic) [Example 275]
Order the entries by their reported IC50, beginning at the minimum. Give the labels in the order specified.
R, Q, P
